Reference source: ChEMBL document CHEMBL3259804

Entries and their measured IC50 follow.
system: Bone marrow cell; experiment: Inhibition of IL3 dependent proliferation in […] mouse bone marrow cells using [3H]thymidine by liquid scintillation counting; type: functional, cell-based
property measured: IC50 (µM)

compound	comparative sign	result value
NC(=O)c1cnc(N[C@@H]2CCCC[C@@H]2N)nc1Nc1cccc(-n2nccn2)c1	=	5.85
N[C@H]1CCCC[C@H]1Nc1cc2nc[nH]c(=O)c2c(Nc2cccc(-n3nccn3)c2)n1	=	0.249
COc1cc(Nc2ncc(F)c(Nc3ccc4c(n3)NC(=O)C(C)(C)O4)n2)cc(OC)c1OC [R-406]	=	0.147
Cc1c[nH]c2c(Nc3nc(N[C@@H]4CCCC[C@@H]4N)cc4nc[nH]c(=O)c34)cccc12	=	3.8
N[C@H]1CCCC[C@H]1Nc1cc2nc[nH]c(=O)c2c(Nc2cccc3c(Cl)c[nH]c23)n1	=	6.66
Cc1c[nH]c2c(Nc3nc(N[C@@H]4CCCC[C@@H]4N)cc4cc[nH]c(=O)c34)cccc12	=	4.94
C[C@H](N)CNc1cc2nc[nH]c(=O)c2c(Nc2cccc3cc[nH]c23)n1	>	10
N[C@H]1COCC[C@H]1Nc1cc2cc[nH]c(=O)c2c(Nc2cccc3cc[nH]c23)n1	=	3.51
Cc1c[nH]c2c(Nc3nc(N[C@@H]4CCOC[C@@H]4N)cc4nc[nH]c(=O)c34)cccc12	=	5.98

====

assay: Apparent permeability from apical to basolateral side in human Caco2 cells; format: ADME, cell-based; conditions: Caco-2

smiles string	Papp A→B [×10⁻⁶ cm/s]
N[C@H]1CCCC[C@H]1Nc1cc2nc[nH]c(=O)c2c(Nc2cccc3cc[nH]c23)n1	9.5
Cc1c[nH]c2c(Nc3nc(N[C@@H]4CCCC[C@@H]4N)cc4nc[nH]c(=O)c34)cccc12	9.5

====

test: Plasma bioavailability in Sprague-Dawley rat at 1 mg/kg, iv and 3 mg/kg, po; format: ADME, organism-based
Entries and their measured bioavailability follow.

smiles string	bioavailability
Cc1c[nH]c2c(Nc3nc(N[C@@H]4CCCC[C@@H]4N)cc4nc[nH]c(=O)c34)cccc12	4%
Cc1c[nH]c2c(Nc3nc(N[C@@H]4CCOC[C@@H]4N)cc4nc[nH]c(=O)c34)cccc12	2%
N[C@H]1CCCC[C@H]1Nc1cc2nc[nH]c(=O)c2c(Nc2cccc3cc[nH]c23)n1	1%

====

Entries and their measured t1/2 follow.
test system: Liver; assay: Half life in rat liver S9 fraction assessed as conversion into 5-(1H-indol-7-ylamino)-7-((1R,2S)-2-aminocyclohexylamino)pyrido[4,3-d]pyrimidine-2,4(1H,3H)-dione; assay type: ADME, subcellular

smiles string	t1/2
N[C@H]1CCCC[C@H]1Nc1cc2cc[nH]c(=O)c2c(Nc2cccc3c(Cl)c[nH]c23)n1	> 2 h
Cn1cc2c(Nc3nc(N[C@@H]4CCOC[C@@H]4N)cc4cc[nH]c(=O)c34)cccc2n1	> 2 h
Cc1nc2cc(N[C@@H]3CCCC[C@@H]3N)nc(Nc3cccc4c(C)c[nH]c34)c2c(=O)[nH]1	> 2 h
N[C@H]1CCCC[C@H]1Nc1cc2nc[nH]c(=O)c2c(Nc2cccc3cc[nH]c23)n1	< 0.083 h

====

experiment: Clearance in Wistar rat at 3 mg/kg, iv and 10 mg/kg, po; type: ADME, organism-based; conditions: in vivo

smiles string	clearance
N[C@H]1COCC[C@H]1Nc1cc2cc[nH]c(=O)c2c(Nc2cccc3cc[nH]c23)n1	142 mL/min/kg
